Consider the following compounds and their measured IC50 readings.
- Tgt: Caspase-3 (Homo sapiens, UniProt P42574)
- Sequence (P42574 whole entry): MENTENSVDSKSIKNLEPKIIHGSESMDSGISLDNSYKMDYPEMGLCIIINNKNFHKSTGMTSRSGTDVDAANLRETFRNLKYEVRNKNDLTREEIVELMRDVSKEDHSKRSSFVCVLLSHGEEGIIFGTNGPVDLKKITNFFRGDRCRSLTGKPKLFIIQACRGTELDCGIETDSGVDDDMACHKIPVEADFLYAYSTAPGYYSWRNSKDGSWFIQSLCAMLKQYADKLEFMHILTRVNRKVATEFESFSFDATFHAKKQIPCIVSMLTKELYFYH
- Assay type: functional
Active and inactive are the calls of the source.
Value Type: IC50

structure_string=COc1ccc2c(c1)CCC(/C=N/c1ccc3c(c1)OCO3)=C2O value_type=IC50 measurement="65.5 µM (active)"
structure_string=O=C(OCC(=O)N1CCC(c2ccccc2)=N1)c1ccc([N+](=O)[O-])s1 value_type=IC50 measurement="28.2 µM (active)"
structure_string=Brc1ccc(NN=Nc2ccccc2)cc1 value_type=IC50 measurement="27.1 µM (active)"
structure_string=O=C(c1ccccc1)c1coc2c1C(=O)c1ccccc1C2=O value_type=IC50 measurement="25.7 µM (active)"
structure_string=O=C(Nc1ccccc1)c1ccc(-c2ccccc2Cl)o1 value_type=IC50 measurement="74.3 µM (active)"
